These entries and their values trace back to patent US20240384268A1.

Molecular target: TLR8 (Homo sapiens)
Sequence (Q9NR97 27-1041): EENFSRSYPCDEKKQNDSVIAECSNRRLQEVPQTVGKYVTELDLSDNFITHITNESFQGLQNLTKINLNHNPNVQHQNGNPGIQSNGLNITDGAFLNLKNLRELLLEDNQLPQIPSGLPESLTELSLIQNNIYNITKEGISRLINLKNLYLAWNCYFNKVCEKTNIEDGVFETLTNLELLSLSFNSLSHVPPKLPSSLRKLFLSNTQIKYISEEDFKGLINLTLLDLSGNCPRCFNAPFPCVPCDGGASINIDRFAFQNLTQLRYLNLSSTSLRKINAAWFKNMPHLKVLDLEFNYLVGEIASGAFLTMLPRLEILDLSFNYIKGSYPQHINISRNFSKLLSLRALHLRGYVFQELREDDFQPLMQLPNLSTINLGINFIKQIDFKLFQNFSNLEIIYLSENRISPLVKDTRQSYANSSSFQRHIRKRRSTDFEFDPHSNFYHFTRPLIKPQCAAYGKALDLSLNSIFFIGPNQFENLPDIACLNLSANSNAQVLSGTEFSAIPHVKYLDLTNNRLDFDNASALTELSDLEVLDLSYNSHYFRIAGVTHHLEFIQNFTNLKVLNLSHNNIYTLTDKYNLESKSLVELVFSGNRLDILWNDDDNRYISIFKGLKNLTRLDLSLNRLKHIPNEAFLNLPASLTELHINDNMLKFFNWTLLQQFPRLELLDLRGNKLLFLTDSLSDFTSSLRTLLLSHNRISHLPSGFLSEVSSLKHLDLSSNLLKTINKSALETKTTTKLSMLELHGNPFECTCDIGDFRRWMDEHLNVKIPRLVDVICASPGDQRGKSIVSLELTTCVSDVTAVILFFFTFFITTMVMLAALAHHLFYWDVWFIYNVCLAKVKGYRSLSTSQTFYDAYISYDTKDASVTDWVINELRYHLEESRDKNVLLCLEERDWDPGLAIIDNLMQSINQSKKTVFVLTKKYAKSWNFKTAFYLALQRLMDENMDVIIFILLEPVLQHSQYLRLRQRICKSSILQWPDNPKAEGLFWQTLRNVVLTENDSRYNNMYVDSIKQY
Test: HEK-TLR8 NF-κB-luciferase reporter, R848 or Motolimod stimulation (potentiation or inhibition)
Type: cell-based
Parameters: expressed in transfected cells; host or cells: 293XLhTLR8 (HEK293)
Details: MOE-modified ASO at 500 nM; averaged NF-κB-Luciferase relative to R848 condition (fold increase)
Items are presented alongside their recorded TLR8 500 nM.
API note: the answer field is a bare number with no unit suffix.

{"input_sequence": "GAGGTCTTGGCTTCGTGGAG (antisense; 2'-MOE modified, pattern not given here) [MB21D1-523 MOE]", "assayed_target": "TLR8 (Homo sapiens)", "measure_name": "TLR8 500 nM", "value_reported": 2.164}
{"input_sequence": "TCGCACTTCAGTCTGAGCAG (antisense; 2'-MOE modified, pattern not given here) [MB21D1-719 MOE]", "assayed_target": "TLR8 (Homo sapiens)", "measure_name": "TLR8 500 nM", "value_reported": 2.158}
{"input_sequence": "GTCCAAGATCAGCAGTCTCA (antisense; 2'-MOE modified, pattern not given here) [CTNN2B-2341 MOE]", "assayed_target": "TLR8 (Homo sapiens)", "measure_name": "TLR8 500 nM", "value_reported": 3.364}
{"input_sequence": "ATGTCCCCTGTTGACTGGTC (antisense; 2'-MOE modified, pattern not given here) [HPRT-489 MOE]", "assayed_target": "TLR8 (Homo sapiens)", "measure_name": "TLR8 500 nM", "value_reported": 2.118}
{"input_sequence": "CAACACTTCGTGGGGTCCTT (antisense; 2'-MOE modified, pattern not given here) [HPRT-665 MOE]", "assayed_target": "TLR8 (Homo sapiens)", "measure_name": "TLR8 500 nM", "value_reported": 1.639}

Output measured TLR8 500 nM for this item: ATGTGATGGCCTCCCATCTC (antisense; 2'-MOE modified, pattern not given here) [HPRT-333 MOE]
1.429

Output measured TLR8 500 nM for this item: GGGAAAGGTTATGCAAGGTC (antisense; 2'-MOE modified, pattern not given here) [CTNN2B-916 MOE]
3.500

Output measured TLR8 500 nM for this item: ACTGACTGTCTTGAGGGTTC (antisense; 2'-MOE modified, pattern not given here) [MB21D1-1483 MOE]
3.185

Output measured TLR8 500 nM for this item: ATGCCATCCACTTGATAGGC (antisense; 2'-MOE modified, pattern not given here) [EGFR-2874 MOE]
2.025

Output measured TLR8 500 nM for this item: GTCCACATCCTGTGGCTCGT (antisense; 2'-MOE modified, pattern not given here) [CAMSAP1-2906 MOE]
0.493

Output measured TLR8 500 nM for this item: GCTTCAGGCGCTGCCTTGCC (antisense; 2'-MOE modified, pattern not given here) [CAMSAP1-2709 MOE]
0.620

* * *

molecular target: human TLR7 (Homo sapiens, UniProt Q9NYK1); construct: HA; host or cells: 293XL-hTLR7-HA (HEK293); assay: HEK-TLR7 NF-κB-luciferase reporter, R848 stimulation; type: cell-based; details: HEK-TLR7; 100 nM ASO; percentage of R848 without ASO (Alharbi et al., 2020)
Sequence (Q9NYK1 27-1049): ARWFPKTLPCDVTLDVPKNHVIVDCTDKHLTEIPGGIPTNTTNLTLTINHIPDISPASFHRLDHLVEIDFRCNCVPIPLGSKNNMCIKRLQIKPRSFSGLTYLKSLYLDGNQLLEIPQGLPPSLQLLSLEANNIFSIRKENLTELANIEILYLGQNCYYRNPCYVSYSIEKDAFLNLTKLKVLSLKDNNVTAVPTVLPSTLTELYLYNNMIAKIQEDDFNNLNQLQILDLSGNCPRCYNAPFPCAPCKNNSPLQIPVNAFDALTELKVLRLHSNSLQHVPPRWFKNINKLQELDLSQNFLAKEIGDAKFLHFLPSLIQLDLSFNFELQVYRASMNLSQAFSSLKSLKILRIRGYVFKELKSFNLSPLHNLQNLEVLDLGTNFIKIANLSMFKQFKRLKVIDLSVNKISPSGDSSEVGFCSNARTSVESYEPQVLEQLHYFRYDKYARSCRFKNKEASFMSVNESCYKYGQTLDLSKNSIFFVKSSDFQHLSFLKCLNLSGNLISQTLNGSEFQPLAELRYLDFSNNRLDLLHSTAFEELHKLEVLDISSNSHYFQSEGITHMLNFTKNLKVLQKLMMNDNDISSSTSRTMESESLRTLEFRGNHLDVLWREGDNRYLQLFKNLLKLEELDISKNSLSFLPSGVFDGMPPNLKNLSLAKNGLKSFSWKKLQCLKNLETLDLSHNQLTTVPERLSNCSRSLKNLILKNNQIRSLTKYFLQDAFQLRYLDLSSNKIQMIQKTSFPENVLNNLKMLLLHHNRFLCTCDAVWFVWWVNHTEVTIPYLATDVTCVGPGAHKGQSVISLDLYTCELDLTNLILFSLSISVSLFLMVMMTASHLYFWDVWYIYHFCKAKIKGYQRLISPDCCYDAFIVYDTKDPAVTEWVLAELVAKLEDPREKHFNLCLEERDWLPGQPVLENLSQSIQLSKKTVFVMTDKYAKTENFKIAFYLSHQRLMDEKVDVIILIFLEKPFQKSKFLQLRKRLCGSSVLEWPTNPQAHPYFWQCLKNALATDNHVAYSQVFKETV
In the oligonucleotide strings, read from the 5' end, every base follows the letter of its sugar. An asterisk marks phosphorothioate; unmarked linkages are phosphodiester. Other units and linkages are bracketed, terminal groups are in braces. A string of capitals states the bases alone. d = 2'-deoxy (DNA); m = 2'-O-methyl
Rule: measured TLR7-100 nM: averaged NF-κB-Luciferase relative to R848 below 30% gets 1 (yes); anything equal to or greater than 30% gets 0 (no).

Reference set (6 entries):
{"substance": "mG*mU*mC*mA*mA*A*C*C*T*A*G*A*A*A*G*mA*mA*mG*mC*mA (mG*mU*mC*mA*mA*dA*dC*dC*dT*dA*dG*dA*dA*dA*dG*mA*mA*mG*mC*mA; antisense) [[CDKN2B-AS1]1528]", "class_label": "1 (yes)"}
{"substance": "mA*mA*mG*mA*mU*T*A*T*C*T*T*C*T*T*T*mU*mA*mA*mU*mU (mA*mA*mG*mA*mU*dT*dA*dT*dC*dT*dT*dC*dT*dT*dT*mU*mA*mA*mU*mU) [[CDKN2B-AS1]2131]", "class_label": "0 (no)"}
{"substance": "mA*mG*mA*mU*mU*A*T*C*T*T*C*T*T*T*T*mA*mA*mU*mU*mU (AGAUUATCTTCTTTTAAUUU; sugars from the 5' end m5 d10 m5, all phosphorothioate, methylation of C not given here) [[CDKN2B-AS1]2130]", "class_label": "0 (no)"}
{"substance": "mG*mU*mU*mC*mA*G*T*C*A*G*A*T*C*G*C*mU*mG*mG*mG*mA (mG*mU*mU*mC*mA*dG*dT*dC*dA*dG*dA*dT*dC*dG*dC*mU*mG*mG*mG*mA) [[LINC-PINT]412 KL]", "class_label": "1 (yes)"}
{"substance": "mU*mG*mG*mC*mG*T*A*G*T*T*T*C*T*C*T*mU*mC*mC*mU*mC (mU*mG*mG*mC*mG*dT*dA*dG*dT*dT*dT*dC*dT*dC*dT*mU*mC*mC*mU*mC; antisense) [[LINC-PINT]937.1]", "class_label": "0 (no)"}
{"substance": "mG*mA*mA*mA*mA*G*A*T*T*A*T*C*T*T*C*mU*mU*mU*mU*mA (GAAAAGATTATCTTCUUUUA; sugars from the 5' end m5 d10 m5, all phosphorothioate, methylation of C not given here) [[CDKN2B-AS1]2134]", "class_label": "0 (no)"}

I wonder whether mU*mG*mA*mU*mG*A*T*G*C*T*T*G*C*A*G*mG*mA*mG*mG*mC (mU*mG*mA*mU*mG*dA*dT*dG*dC*dT*dT*dG*dC*dA*dG*mG*mA*mG*mG*mC) [[LINC-PINT|283.1] has TLR7-100 nM: averaged NF-κB-Luciferase relative to R848 below 30%. Can you tell?
1 (yes)

* * *

Target: human TLR9 (Homo sapiens, UniProt Q9NR96)
Construct: HA; host or cells: 293XL-hTLR9-HA (HEK293)
Sequence (Q9NR96 26-1032): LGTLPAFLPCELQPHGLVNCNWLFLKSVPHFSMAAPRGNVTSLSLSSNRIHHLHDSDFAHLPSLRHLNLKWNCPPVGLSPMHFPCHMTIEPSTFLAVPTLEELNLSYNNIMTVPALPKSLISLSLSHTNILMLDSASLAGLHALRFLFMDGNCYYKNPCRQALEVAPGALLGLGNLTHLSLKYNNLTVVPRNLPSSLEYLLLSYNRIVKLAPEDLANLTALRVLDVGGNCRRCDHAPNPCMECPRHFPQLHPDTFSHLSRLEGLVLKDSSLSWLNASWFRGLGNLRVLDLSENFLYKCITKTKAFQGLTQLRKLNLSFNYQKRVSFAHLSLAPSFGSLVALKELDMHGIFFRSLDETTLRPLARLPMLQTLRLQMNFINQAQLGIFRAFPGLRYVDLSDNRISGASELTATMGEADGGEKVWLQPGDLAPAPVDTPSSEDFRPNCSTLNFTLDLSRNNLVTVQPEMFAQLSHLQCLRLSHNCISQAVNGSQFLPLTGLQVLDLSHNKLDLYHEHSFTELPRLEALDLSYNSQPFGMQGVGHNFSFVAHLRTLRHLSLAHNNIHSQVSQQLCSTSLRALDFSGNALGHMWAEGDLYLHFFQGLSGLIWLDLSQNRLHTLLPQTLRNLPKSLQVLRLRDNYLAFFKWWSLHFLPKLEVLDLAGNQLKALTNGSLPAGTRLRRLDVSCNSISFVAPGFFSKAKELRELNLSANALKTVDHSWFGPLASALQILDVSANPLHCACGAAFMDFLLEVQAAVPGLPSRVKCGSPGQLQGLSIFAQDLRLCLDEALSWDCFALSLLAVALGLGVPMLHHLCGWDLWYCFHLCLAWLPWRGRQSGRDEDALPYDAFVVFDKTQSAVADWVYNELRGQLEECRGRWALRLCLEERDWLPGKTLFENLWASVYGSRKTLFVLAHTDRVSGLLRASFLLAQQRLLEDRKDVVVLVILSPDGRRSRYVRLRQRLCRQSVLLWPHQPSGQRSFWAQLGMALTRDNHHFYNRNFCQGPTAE
Experiment: HEK-TLR9 NF-κB-luciferase reporter, ODN2006 stimulation
Assay type: cell-based
Conditions: ASO 100 nM; relative to ODN2006 only, given as fraction
measure_name: TLR9 100 nM (averaged NF-κB-Luciferase level relative to ODN2006 condition)
API note: the answer field is a bare number with no unit suffix.

{"input_sequence": "GATAGCACCTTCAGCA (antisense; LNA-modified, pattern not given here) [CTNN2B-1294 LNA KL]", "value_reported": 0.804}
{"input_sequence": "AACACTTCGTGGGGTC (antisense; LNA-modified, pattern not given here) [HPRT LNA-666 V1]", "value_reported": 1.104}
{"input_sequence": "GCACACTTCGTACCCA (antisense; LNA-modified, pattern not given here) [CAMSAP1-4915 LNA V1]", "value_reported": 0.683}

# context switch: different sequence, same TLR9 100 nM (averaged NF-κB-Luciferase level relative to ODN2006 condition)
Output measured TLR9 100 nM (averaged NF-κB-Luciferase level relative to ODN2006 condition) for this item: TGTCCTTGCACGTGGC (antisense; LNA-modified, pattern not given here) [EGFR-1016 LNA V1]
1.020
